# experimental_system: T1, human collagen type I, acid soluble, extracted from placenta (Sigma C7774) (human, UniProt P02452 162-1218; P08123 80-1119)
# T1 construct: tissue extract, gelled and dried in wells; also called dried human collagen; h-Collagen
# T1 sequence (P02452 162-1218 limits assumed, chain 1 of 2): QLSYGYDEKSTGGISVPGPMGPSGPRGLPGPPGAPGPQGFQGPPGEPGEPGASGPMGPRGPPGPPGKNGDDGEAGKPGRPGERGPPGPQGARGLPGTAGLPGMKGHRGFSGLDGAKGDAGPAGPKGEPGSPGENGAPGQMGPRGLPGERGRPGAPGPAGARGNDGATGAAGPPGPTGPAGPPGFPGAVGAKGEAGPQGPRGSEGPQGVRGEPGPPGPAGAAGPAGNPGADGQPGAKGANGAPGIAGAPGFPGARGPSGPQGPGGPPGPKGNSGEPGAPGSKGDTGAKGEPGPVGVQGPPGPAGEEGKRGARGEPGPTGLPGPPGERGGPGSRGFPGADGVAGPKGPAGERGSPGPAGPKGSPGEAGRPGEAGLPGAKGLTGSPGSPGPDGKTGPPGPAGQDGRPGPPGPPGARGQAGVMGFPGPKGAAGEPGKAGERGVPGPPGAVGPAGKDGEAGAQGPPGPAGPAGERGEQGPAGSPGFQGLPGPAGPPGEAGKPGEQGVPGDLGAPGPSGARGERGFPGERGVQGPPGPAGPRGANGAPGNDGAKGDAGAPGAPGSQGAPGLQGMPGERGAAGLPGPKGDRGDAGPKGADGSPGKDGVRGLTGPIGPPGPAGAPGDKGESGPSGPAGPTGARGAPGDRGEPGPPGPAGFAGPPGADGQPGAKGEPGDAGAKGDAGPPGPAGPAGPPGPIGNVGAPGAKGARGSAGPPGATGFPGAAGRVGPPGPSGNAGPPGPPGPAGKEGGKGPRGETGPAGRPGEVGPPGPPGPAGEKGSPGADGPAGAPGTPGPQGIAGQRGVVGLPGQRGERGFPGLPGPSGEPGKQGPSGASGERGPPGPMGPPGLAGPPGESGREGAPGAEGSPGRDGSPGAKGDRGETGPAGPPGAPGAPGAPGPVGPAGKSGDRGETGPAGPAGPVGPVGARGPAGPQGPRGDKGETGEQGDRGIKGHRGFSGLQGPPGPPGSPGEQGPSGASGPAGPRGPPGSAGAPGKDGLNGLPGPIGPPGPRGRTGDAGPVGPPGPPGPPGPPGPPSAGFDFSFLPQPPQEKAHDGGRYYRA
# T1 sequence (P08123 80-1119 limits assumed, chain 2 of 2): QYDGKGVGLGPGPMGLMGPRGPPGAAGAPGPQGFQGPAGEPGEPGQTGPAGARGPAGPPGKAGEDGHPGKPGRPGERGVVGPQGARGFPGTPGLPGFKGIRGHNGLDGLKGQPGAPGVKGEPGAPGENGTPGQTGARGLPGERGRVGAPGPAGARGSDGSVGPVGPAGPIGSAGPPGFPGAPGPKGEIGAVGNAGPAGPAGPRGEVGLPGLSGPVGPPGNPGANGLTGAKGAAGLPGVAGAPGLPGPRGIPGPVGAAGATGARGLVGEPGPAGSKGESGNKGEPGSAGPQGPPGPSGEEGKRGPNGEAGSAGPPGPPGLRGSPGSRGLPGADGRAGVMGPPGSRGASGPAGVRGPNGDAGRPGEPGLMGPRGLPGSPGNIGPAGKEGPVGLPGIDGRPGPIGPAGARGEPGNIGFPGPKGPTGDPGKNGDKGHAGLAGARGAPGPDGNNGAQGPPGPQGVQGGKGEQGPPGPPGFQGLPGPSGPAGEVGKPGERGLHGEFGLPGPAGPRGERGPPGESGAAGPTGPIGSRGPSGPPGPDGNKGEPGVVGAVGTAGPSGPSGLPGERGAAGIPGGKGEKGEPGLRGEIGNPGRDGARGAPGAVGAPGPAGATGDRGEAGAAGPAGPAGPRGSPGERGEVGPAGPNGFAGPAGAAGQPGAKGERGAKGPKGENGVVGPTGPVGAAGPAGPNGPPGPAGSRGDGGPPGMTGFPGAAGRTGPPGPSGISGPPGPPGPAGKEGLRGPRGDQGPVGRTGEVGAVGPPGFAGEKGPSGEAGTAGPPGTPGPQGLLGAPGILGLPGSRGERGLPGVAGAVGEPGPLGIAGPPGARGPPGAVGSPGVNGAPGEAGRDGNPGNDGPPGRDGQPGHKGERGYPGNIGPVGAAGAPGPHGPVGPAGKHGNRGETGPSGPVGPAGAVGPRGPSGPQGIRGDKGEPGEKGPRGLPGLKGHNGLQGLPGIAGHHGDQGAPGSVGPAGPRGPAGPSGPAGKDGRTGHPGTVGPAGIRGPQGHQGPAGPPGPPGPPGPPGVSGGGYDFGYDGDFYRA
# assay_comment: dried collagen assay
Bridge positions count the residues as written; N and C are the ends. Square brackets hold non-standard residues; d marks the D form. Primed or numbered codes have the meaning given here. Side chains are listed from the residue outwards. Ends that are not written are not given here. * marks the point of attachment. Gd^D = GdDOTAGA (gadolinium DOTAGA chelate); Bip = N[C@@H](Cc1ccc(-c2ccccc2)cc1)C(=O)O; Tyr(3-I) = N[C@@H](Cc1ccc(O)c(I)c1)C(=O)O; Gd^T(3) = GdDTPA attached via thiourea; 1Nal = N[C@@H](Cc1cccc2ccccc12)C(=O)O; Dmt = Cc1cc(O)cc(C)c1C[C@H](N)C(=O)O; Gd^T = not defined here; Gd^T″ = GdDTPA-thiourea; NH(CH2)6NH2 = NCCCCCCN*
Known % bound of a selection of binders

binder | % bound [%]
{Gd^T″}-GK([Gly-Gd^T″])QWHCTTYFPHHYCLYG (disulfide 6-15 (inferred)) [Compound ID 875] | 64
{Gd^T″}-GK([Gly-Gd^T″])WHCYTYFPHHYCVYG (disulfide 5-14 (inferred)) [Compound ID 944] | 91
{Gd^T}-DWTCSGDE[Tyr(3-I)]TWHCNYE (disulfide 4-13 (inferred); not fully specified (C-terminus); reading uncertain) [Compound ID 846] | 31
{Gd^T″}-GQWHCTTRFPHHYCLYG[dK](Gd^T″) (disulfide 5-14 (inferred); not fully specified (C-terminus)) [Compound ID 808] | 25
{Gd^T″}-GQWHCTTRFPHHYCK(Gd^T″)YG (disulfide 5-14 (inferred); not fully specified (C-terminus)) [Compound ID 815] | 66
{Gd^T″}-GK([Gly-Gd^T″])WHCYTYFPHHYCVYG-{NH(CH2)6NH2-Gd^T″} (disulfide 5-14 (inferred)) [Compound ID 999] | 65
{Gd^T(3)}-GQWHCTTLFPHH[1Nal]CLYG (disulfide 5-14; not fully specified (C-terminus)) [Compound ID 913] | 78
{Gd^T″}-GQWK(Gd^T″)CTTRFPHHYCLYG (disulfide 5-14 (inferred)) [Compound ID 956] | 39
{Gd^T″}-GQWHCTTR[Bip]PHHYCLYG (disulfide 5-14) [Compound ID 881] | 19
{Gd^T}-GQWTCSGDEYTWHCAYE (disulfide 5-14 (inferred); not fully specified (C-terminus); reading uncertain) [Compound ID 839] | 30
{Gd^D}-GK([Gly-Gd^D])QWHCTTYFPHHYCLYG (disulfide 6-15 (inferred)) [Compound ID 961] | 54
{Gd^T″}-GHK([His-Gly-Gd^T″])WHCTTYFPHHYCLYG (disulfide 6-15 (inferred); not fully specified (C-terminus)) [Compound ID 984] | 67
{Gd^T″}-GQWTCSGDEYTWACNYE (disulfide 5-14 (inferred); not fully specified (C-terminus)) [Compound ID 833] | 13
{Gd^T}-PPQWHCTTRFPHHYCLYG (disulfide 6-15 (inferred); not fully specified (C-terminus); reading uncertain) [Compound ID 854] | 64
{Gd^T″}-GQWHCTDRFPHHYCLYG (disulfide 5-14 (inferred)) [Compound ID 936] | 9
{Gd^T″}-GK([Gly-Gd^T″])WHCTTYFPHH[Dmt]CLYG (disulfide 5-14 (inferred)) [Compound ID 953] | 50
{Gd^T″}-GAWHCTTYFPHH[dY]CLYG (disulfide 5-14 (inferred); not fully specified (C-terminus)) [Compound ID 915] | 15
{Gd^T}-GQWHCTTRYPHHYCLYG (disulfide 5-14 (inferred); not fully specified (C-terminus); reading uncertain) [Compound ID 859] | 47
{Gd^T″}-GK([Gly-Gd^T″])WHCYTYFPHHYCLY[dY]K(Gd^T″) (disulfide 5-14 (inferred); not fully specified (C-terminus)) [Compound ID 988] | 69
